Assay: Solvent solubility screen in 32 solvent systems
Assay type: physicochemical
Details: 40 °C, organic solvent or mixture, thermodynamic from solid; solvent CHCl3; (P) = partial solubility at 100 volumes; read-out: Approximate solubility
Procedure: A solvent solubility screen was conducted in 32 solvent systems as follows. […] Between each addition, the mixture was checked for dissolution. If no dissolution was apparent, the mixture was heated to around 40° C. and checked again. This procedure was continued until dissolution was observed or until 100 volumes of solvent had been added. Undissolved material from the solubility screen was isolated and analyzed by XRPD.
measureName: solubility

Lookup: # query: solubility of entry COc1ccc(CN2C3CC2CN(c2ccc(-c4cc(OCC(C)(C)O)cn5ncc(C#N)c45)cn2)C3)cn1
Found: < 5000 µg/mL

----------
experiment: Solvent solubility screen in 32 solvent systems; assay type: physicochemical; conditions: 40 °C, organic solvent or mixture, thermodynamic from solid; solvent IPA; read-out: Approximate solubility
measureName: solubility

Lookup: Look up solubility for this compound: COc1ccc(CN2C3CC2CN(c2ccc(-c4cc(OCC(C)(C)O)cn5ncc(C#N)c45)cn2)C3)cn1
Found: < 5000 µg/mL

----------
assay: Solvent solubility screen in 32 solvent systems; assay type: physicochemical; settings: 40 °C, organic solvent or mixture, thermodynamic from solid; solvent 2-Methyl THF; (P) = partial solubility at 100 volumes; read-out: Approximate solubility
measureName: solubility

Lookup: Looking for the measured solubility of COc1ccc(CN2C3CC2CN(c2ccc(-c4cc(OCC(C)(C)O)cn5ncc(C#N)c45)cn2)C3)cn1 , can you help?
Found: < 5000 µg/mL

----------
experiment: Solvent solubility screen in 32 solvent systems; format: physicochemical; settings: 40 °C, organic solvent or mixture, thermodynamic from solid; solvent 1-Propanol; read-out: Approximate solubility
measureName: solubility

Lookup: Entry under review: COc1ccc(CN2C3CC2CN(c2ccc(-c4cc(OCC(C)(C)O)cn5ncc(C#N)c45)cn2)C3)cn1 . Reported solubility?
Found: < 5000 µg/mL

----------
Experiment: Solvent solubility screen in 32 solvent systems
Format: physicochemical
Settings: 40 °C, organic solvent or mixture, thermodynamic from solid; solvent MEK; read-out: Approximate solubility
Experimental: A solvent solubility screen was conducted in 32 solvent systems as follows. […] Between each addition, the mixture was checked for dissolution. If no dissolution was apparent, the mixture was heated to around 40° C. and checked again. This procedure was continued until dissolution was observed or until 100 volumes of solvent had been added. Undissolved material from the solubility screen was isolated and analyzed by XRPD.
measureName: solubility

Lookup: // query solubility value for entry COc1ccc(CN2C3CC2CN(c2ccc(-c4cc(OCC(C)(C)O)cn5ncc(C#N)c45)cn2)C3)cn1
Found: < 5000 µg/mL

----------
assay: Solvent solubility screen in 32 solvent systems; type: physicochemical; conditions: 40 °C, organic solvent or mixture, thermodynamic from solid; solvent Cyclohexane; read-out: Approximate solubility
measureName: solubility

Lookup: Using the record for COc1ccc(CN2C3CC2CN(c2ccc(-c4cc(OCC(C)(C)O)cn5ncc(C#N)c45)cn2)C3)cn1 , report its solubility.
Found: < 5000 µg/mL

----------
Assay: Solvent solubility screen in 32 solvent systems
Assay type: physicochemical
Conditions: 40 °C, aqueous with cosolvent or surfactant or cyclodextrin, thermodynamic from solid; solvent Acetone:Water (50%); read-out: Approximate solubility
Method: A solvent solubility screen was conducted in 32 solvent systems as follows. […] Between each addition, the mixture was checked for dissolution. If no dissolution was apparent, the mixture was heated to around 40° C. and checked again. This procedure was continued until dissolution was observed or until 100 volumes of solvent had been added. Undissolved material from the solubility screen was isolated and analyzed by XRPD.
measureName: solubility

Lookup: Given the entry COc1ccc(CN2C3CC2CN(c2ccc(-c4cc(OCC(C)(C)O)cn5ncc(C#N)c45)cn2)C3)cn1 , report its measured solubility.
Found: < 5000 µg/mL
